Target: SmPDE4A_CD (Schistosoma mansoni, UniProt A0ACM8RGL1)
Assay: biochemical
Details: 10 µM compound; read-out: SmPDE4A_CD Inhibition at 10 µM (%)
inhibition at 10 µM below 20% gives rule not met; inhibition at 10 µM at or above it gives rule met.

O=C(Nc1cnccc1Cl)c1ccc(OC(F)F)c(OCC2CC2)c1    rule met
COc1ccc(NC(=O)c2ccc(OC(F)F)c(OCC3CC3)c2)cc1Cl    rule not met

query: Is inhibition at 10 µM at least 20%? Consider COc1ccc(C(=O)Nc2c(Cl)cncc2Cl)cc1
result: rule not met

query: Could you verify whether the entry COc1ccc(C(=O)Nc2c(Cl)cncc2Cl)cc1OCc1ccccc1 shows inhibition at 10 µM of no less than 20%?
result: rule not met

Every entry's value here was drawn from paper PMC10095301.
